# ASSAY_SUMMARY: Cmax in BALB/c mouse at 2.5 mg/kg, iv measured upto 24 hrs by HPLC analysis
# Type: ADME, organism-based
# Parameters: route intravenous, dose 2.5 mg/kg, time <=24
# CONDITION_SET: in vivo
Cut-off 700 ng/mL on Cmax, inclusive. At or above means class 1; below means class 0.

CC(c1cc(F)c(F)c(F)c1)N1CC2(CCN(c3nc(=O)c4cc(C(F)(F)F)cc([N+](=O)[O-])c4s3)CC2)C1 (stereo unspecified) = class 0

[Q] Identify whether the reported Cmax of the following compound is 700 ng/mL or greater: CC(c1ccc(OC(F)(F)F)cc1)N1CC2(CCN(c3nc(=O)c4cc(C(F)(F)F)cc([N+](=O)[O-])c4s3)CC2)C1 (stereo unspecified)
[A] class 1

[Q] Identify whether the reported Cmax of the following compound is 700 ng/mL or greater: CC(c1ccc(C(F)(F)F)cc1)N1CC2(CCN(c3nc(=O)c4cc(C(F)(F)F)cc([N+](=O)[O-])c4s3)CC2)C1 (stereo unspecified)
[A] class 1

[Q] Identify whether the reported Cmax of the following compound is 700 ng/mL or greater: CC(c1cc(F)cc(F)c1)N1CC2(CCN(c3nc(=O)c4cc(C(F)(F)F)cc([N+](=O)[O-])c4s3)CC2)C1 (stereo unspecified)
[A] class 1

[Q] Identify whether the reported Cmax of the following compound is 700 ng/mL or greater: O=c1nc(N2CCN(CC3CCCCC3)CC2)sc2c([N+](=O)[O-])cc(C(F)(F)F)cc12
[A] class 1
